target: Alpha-1A adrenergic receptor (Homo sapiens, UniProt P35348); format: functional, cell-based; note: assay procedure not described here
Sequence (P35348 whole entry): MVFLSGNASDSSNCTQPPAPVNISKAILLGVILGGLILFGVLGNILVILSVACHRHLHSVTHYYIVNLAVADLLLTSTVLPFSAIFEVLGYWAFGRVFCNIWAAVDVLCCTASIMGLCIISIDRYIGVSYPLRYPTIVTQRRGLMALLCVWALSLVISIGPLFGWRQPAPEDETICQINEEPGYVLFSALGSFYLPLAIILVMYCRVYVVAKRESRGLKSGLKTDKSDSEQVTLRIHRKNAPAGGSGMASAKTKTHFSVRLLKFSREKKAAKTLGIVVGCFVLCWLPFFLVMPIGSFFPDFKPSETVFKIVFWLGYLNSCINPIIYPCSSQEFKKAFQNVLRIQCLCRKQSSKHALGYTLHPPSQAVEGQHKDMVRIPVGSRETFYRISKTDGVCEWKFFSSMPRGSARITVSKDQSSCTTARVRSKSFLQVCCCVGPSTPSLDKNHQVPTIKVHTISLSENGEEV
Value kind: AC50

| Molecule | AC50 |
| --- | --- |
| Cc1oc(=O)oc1COC(=O)[C@@H]1N2C(=O)[C@@H](NC(=O)[C@H](N)c3ccccc3)[C@H]2SC1(C)C [LENAMPICILLIN] | 24.5 µM |
| CC(=O)[C@]1(N)Cc2c(O)c3c(c(O)c2[C@@H](O[C@H]2C[C@H](O)[C@H](O)CO2)C1)C(=O)c1ccccc1C3=O [AMRUBICIN] | > 3 µM |
| COc1cccc(C(=O)CCN[C@@H](C)[C@H](O)c2ccccc2)c1 [OXYFEDRINE] | 0.205 µM |
| Nc1c(CC(=O)O)cccc1C(=O)c1ccc(Br)cc1 [BROMFENAC] | > 30 µM |
| O=C(NNCS(=O)(=O)O)c1ccncc1 [METHANIAZIDE] | > 30 µM |

Please indicate recorded AC50 of C[Se]CC[C@H](N)C(=O)O [SELENOMETHIONINE] measured with Alpha-1A adrenergic receptor (Homo sapiens, UniProt P35348).
> 30 µM

Please indicate recorded AC50 of Cc1cc(=O)oc2cc(O)ccc12 [HYMECROMONE] measured with Alpha-1A adrenergic receptor (Homo sapiens, UniProt P35348).
> 30 µM

Please indicate recorded AC50 of CCCn1cnc2c1c(=O)n(CCCCC(C)=O)c(=O)n2C [PROPENTOFYLLINE] measured with Alpha-1A adrenergic receptor (Homo sapiens, UniProt P35348).
> 30 µM

Please indicate recorded AC50 of CC1(CCN2CCCCC2)C(=O)CCc2ccccc21 (configuration not stated) [NEPINALONE] measured with Alpha-1A adrenergic receptor (Homo sapiens, UniProt P35348).
> 30 µM

Please indicate recorded AC50 of NNCCc1ccccc1 [PHENELZINE] measured with Alpha-1A adrenergic receptor (Homo sapiens, UniProt P35348).
> 1 µM
